test: log P determination by HPLC on reverse-phase column (C 18), acidic range pH 2.3 (EEC Directive 79/831 Annex V. A8); type: physicochemical; settings: pH 2.3
Known logP of a selection of compounds
Could you respond with only the numeric value?

The examples below pair each entry with its known result.
{"compound": "CC(C[Si](C)(C)C)C1CCCCC1NC(=O)c1cn(C)nc1C(F)F (mixture of isomers)", "logP": 4.56}
{"compound": "C[Si](C)(C)CCC1CCCCC1NC(=O)c1ccsc1I (stereo not shown)", "logP": 5.13}
{"compound": "Cc1nc(C(F)F)c(C(=O)NC2CCCCC2C(C)C[Si](C)(C)C)s1 (mixture of isomers)", "logP": 5.13}

Now look at this one.
Challenge: Item under review: CC(C[Si](C)(C)C)C1CCCCC1NC(=O)c1ccsc1I (stereo not shown) . Reported logP?
Response given: 5.44
